FYI, the data here is from paper PMC8901748.

# System: primary articular chondrocytes
# ASSAY_PROTOCOL: Cell viability by CCK-8 assay
# Assay type: cell-based, mouse
# CONDITION_SUMMARY: Mus musculus, Chondrocyte, 72 h, read-out: IC50 (cell viability, toxicity in chondrocytes)
REPORTED_METRIC: IC50 (µM)
One number for each entry, in µM.

{"SMILES_STR": "Cc1ccc(-c2cc(C(F)(F)F)nn2-c2ccc(S(N)(=O)=O)cc2)cc1", "READOUT_UNIT": "µM", "IC50": 34.7}

Let us move to another entry and its IC50.
Request: IC50 lookup needed for `CCc1nc2c(C)nc(C)cc2n1-c1ccc(CCNC(=O)NS(=O)(=O)c2ccc(C)cc2)cc1` , thanks.
Response: 113
